Below is a list of entries, each paired with its recorded kon value.
EXPERIMENTAL_SYSTEM: T1, Human LY6G6D ectodomain fused to mouse IgG2A Fc (monovalent display, knob-in-hole) (human, biotinylated for BLI capture (site not stated))
T1 chain: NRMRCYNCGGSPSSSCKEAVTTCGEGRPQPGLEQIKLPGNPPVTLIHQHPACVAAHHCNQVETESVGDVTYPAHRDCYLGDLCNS
EXPERIMENTAL_DETAILS: BLI, chain shuffle round 1; antigen not named in the table (LY6G6D ectodomain as in Example 3)
MEASURED_ENDPOINT: kon (M⁻¹ s⁻¹)

| BINDER | MEASURED_ENDPOINT | UNIT_ABBREVIATION | ENDPOINT_VALUE |
| --- | --- | --- | --- |
| CP1476 (heavy chain from CB21-500, light chain from CB21-469) (antibody, V domains shown, Chain-shuffled antibody) VH: EVQLVESGGGLVQPGGSLRLSCAASGFTFSSYAMNWVRQVPGKGLEGVSGMSGSGGRIYYADSVKGRFTMSRDNSKNMVYLQMNSLRAEDTALYYCAKDLDVWGKGTTVTVSS VL: DVVMTQTPLSSPVTLGQSASISCRSSQSLVHSDGNTYLNWLHQRPGQPPRLLIYKISNRFSGVPDRFSGSGAGTDFTLKISRVEAEDVGVYYCMQATQFPLTFGGGTKLEIK | kon | M⁻¹ s⁻¹ | 131000 |
| CP1479 (heavy chain from CB21-513, light chain from CB21-469) (antibody, V domains shown, Chain-shuffled antibody) VH: EVQLVDSGGGLVEPGGSLRLSCAASGFTFSSYAMTWVRQAPGKGLEWVSGISGSGGVTDYADSVKGRFTISRDNSKNTLYMQMNSLRAEDTAVYYCAKDLGVWGKGTTVTVSS VL: DVVMTQTPLSSPVTLGQSASISCRSSQSLVHSDGNTYLNWLHQRPGQPPRLLIYKISNRFSGVPDRFSGSGAGTDFTLKISRVEAEDVGVYYCMQATQFPLTFGGGTKLEIK | kon | M⁻¹ s⁻¹ | 32200 |
| CP1471 (heavy chain from CB21-469, light chain from CB21-500) (antibody, V domains shown, Chain-shuffled antibody) VH: EVQLVESGGGLVQPGGSLRLSCAASGFTFSSYAMNWVRQAPGKGLEWVSGISGNGGRIYYADSVKGRFTISRDNSKNTLYLQMNSLRVEDTAVYYCAKDLDVWGKGTTVTVSS VL: DVVMTQTPLSSPVTLGQPASISCRSSQNLVHSDGNTYLNWLQQRPGQPPRLLIYKISNRFSGVPDRFSGSGAGTDFTLKISRVEAEDVGVYYCMQATQFPLTFGGGTKLEIK | kon | M⁻¹ s⁻¹ | 134000 |

All values here come from patent US20250361298A1.
